Attribution: patent US20220040297A1

Listed binders paired with reported ratio of amounts bound (vs GLS3000)
- Assayed target: CD3ε homodimer protein (human, UniProt P07766 23-126, limits assumed)
- Sequence (P07766 23-126 limits assumed): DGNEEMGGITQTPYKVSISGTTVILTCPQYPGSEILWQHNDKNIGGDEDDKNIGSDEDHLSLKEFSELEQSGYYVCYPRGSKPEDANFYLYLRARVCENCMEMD
- Protocol: SPR, immobilized CD3ε homodimer;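 also: biacore T200 surface plasmon resonance at 25 °C, antibody variants flowed as analytes over amine-coupled CD3ε homodimer on a CM4 chip, variant binding amount divided by that of GLS3000 antibody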
// return just the number, without any unit appended

GLS3000 R29I (antibody, name in Kabat numbering, V domains shown, one-arm format as m2) VH: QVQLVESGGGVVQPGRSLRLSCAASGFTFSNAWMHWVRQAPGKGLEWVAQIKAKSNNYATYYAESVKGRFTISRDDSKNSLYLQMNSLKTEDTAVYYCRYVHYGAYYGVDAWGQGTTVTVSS VL: DIVMTQSPLSLPVTPGEPASISCRSSQSLVHSNINTYLHWYQQKPGQAPRLLIYKVSNRFSGVPDRFSGSGSGTDFTLKISRVEAEDVGVYYCGQGTQVPYTFGQGTKLEIK
0.37

Please look at the following binder next.
Req: # get_value(readout='ratio of amounts bound (vs GLS3000)', item= GLS3000 K50A (antibody, name in Kabat numbering, V domains shown, one-arm format as m2) VH: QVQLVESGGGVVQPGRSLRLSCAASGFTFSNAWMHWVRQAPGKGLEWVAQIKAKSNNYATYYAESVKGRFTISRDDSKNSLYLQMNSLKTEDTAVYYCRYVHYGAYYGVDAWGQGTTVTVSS VL: DIVMTQSPLSLPVTPGEPASISCRSSQSLVHSNRNTYLHWYQQKPGQAPRLLIYAVSNRFSGVPDRFSGSGSGTDFTLKISRVEAEDVGVYYCGQGTQVPYTFGQGTKLEIK )
Resp: 0.23
